Kindly state IC50 for each of the entries shown.
assayed system: ADAR1p110 (Homo sapiens, UniProt P55265)
Construct: HAT (N); FLAG (alternative preparation, not on the same molecule as HAT) (N); made in house; host or cells: Sf9 insect cells, baculovirus
assay: in vitro editing assay with recombinant ADAR1p110 and dsRNA or DNA:RNA substrates
Type: biochemical
run parameters: DNA:RNA mismatched hybrid substrate; read-out: IC50 estimated by in vitro editing assay, DNA:mmRNA

In plain terms, CSc1[nH]nc(-c2ccc(Cl)cc2)c1C#N has a documented IC50 of 5 to 17 µM

In plain terms, Cc1cc(C)n(-c2ccc(N3CCSCC3)nn2)n1 has a documented IC50 of 3 to 10 µM

In plain terms, Cc1cc(C)n2nc(-c3ccccc3)cc2n1 has a documented IC50 of 30 to 76 µM

In plain terms, CSc1nc(SC)c(C#N)c(-c2ccco2)n1 has a documented IC50 of 1.5 to 3 µM

In plain terms, N#Cc1ccc(NC(=O)c2sc3ccccc3c2Cl)cc1 has a documented IC50 of 30 to 100 µM

* * *

assay: water solubility by LC-MS/MS
Type: physicochemical
run parameters: water with 1% DMSO, kinetic from dmso stock, tested at 100 μM in 1% DMSO
quantity: solubility (µM)
Numbers only; they are read as µM.

In plain terms, N#Cc1ccc(NC(=O)c2sc3ccccc3c2Cl)cc1 has a documented solubility of 0.59

* * *

assayed system: ADAR1p110 (Homo sapiens, UniProt P55265)
Construct: HAT (N); FLAG (alternative preparation, not on the same molecule as HAT) (N); made in house; host or cells: Sf9 insect cells, baculovirus
Sequence (P55265 1-931 isoform P55265-5): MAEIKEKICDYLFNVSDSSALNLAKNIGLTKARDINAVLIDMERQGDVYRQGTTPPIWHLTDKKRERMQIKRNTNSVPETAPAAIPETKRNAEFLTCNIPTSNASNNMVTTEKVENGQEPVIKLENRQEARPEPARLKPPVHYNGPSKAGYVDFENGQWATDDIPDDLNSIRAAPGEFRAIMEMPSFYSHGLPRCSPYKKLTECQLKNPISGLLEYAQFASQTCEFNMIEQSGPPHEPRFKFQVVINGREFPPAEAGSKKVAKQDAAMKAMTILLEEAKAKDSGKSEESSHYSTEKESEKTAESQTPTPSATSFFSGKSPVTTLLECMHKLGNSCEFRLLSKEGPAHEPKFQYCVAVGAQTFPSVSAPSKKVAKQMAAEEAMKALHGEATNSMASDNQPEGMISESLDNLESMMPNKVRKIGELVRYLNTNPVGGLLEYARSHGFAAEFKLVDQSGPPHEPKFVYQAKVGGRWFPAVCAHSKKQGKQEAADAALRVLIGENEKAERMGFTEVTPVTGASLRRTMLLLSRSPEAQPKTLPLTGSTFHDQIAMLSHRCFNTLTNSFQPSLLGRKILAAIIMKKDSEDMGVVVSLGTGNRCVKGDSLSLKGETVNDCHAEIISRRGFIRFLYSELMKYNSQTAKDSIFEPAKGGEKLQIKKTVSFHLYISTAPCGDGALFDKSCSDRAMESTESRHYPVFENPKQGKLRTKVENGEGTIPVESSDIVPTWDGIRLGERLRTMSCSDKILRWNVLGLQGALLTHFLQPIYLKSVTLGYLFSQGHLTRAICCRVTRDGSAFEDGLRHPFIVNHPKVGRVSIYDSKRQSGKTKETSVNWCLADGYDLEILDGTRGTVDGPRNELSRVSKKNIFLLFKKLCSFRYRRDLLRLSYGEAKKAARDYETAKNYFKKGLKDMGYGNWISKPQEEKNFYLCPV
assay: in vitro editing assay with recombinant ADAR1p110 and dsRNA or DNA:RNA substrates
Type: biochemical
run parameters: matched dsRNA substrate; read-out: IC50 estimated by in vitro editing assay, RNA:RNA
Kindly state pIC50 for each of the entries shown.
The quantity pIC50 is defined as the negative base-10 logarithm of the molar concentration.

In plain terms, COc1cc(C2=NNC(=O)CC2)cc(OC)c1OC has a documented pIC50 of 4.24

In plain terms, NC(=NOC(=O)c1ccc([N+](=O)[O-])o1)c1ccc(OCc2ccc(Cl)cc2)c(Cl)c1 has a documented pIC50 of 4.57

In plain terms, N#Cc1ccc(NC(=O)c2sc3ccccc3c2Cl)cc1 has a documented pIC50 of 5.52

In plain terms, N#Cc1c(-c2ccccc2)cc(SCc2ccc(Cl)cc2)n2c1nc1ccccc12 has a documented pIC50 of 4.17
